B1: TPR 5TU (parent)
chain: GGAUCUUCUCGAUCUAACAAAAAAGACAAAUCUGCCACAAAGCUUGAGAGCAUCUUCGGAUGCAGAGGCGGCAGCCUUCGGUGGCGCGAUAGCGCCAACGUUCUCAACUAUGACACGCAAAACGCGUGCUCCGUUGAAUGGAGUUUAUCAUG

variants of: B1; assay: polymerase ribozyme fitness, log enrichment relative to wild type (log ratio); higher = more active; in vitro selection for triplet polymerase activity
This sample holds only a part of the variants without activity.
Give polymerase ribozyme fitness (log ratio) for every item shown.
Give your answer as a number; write no unit.

What the record says about A97G G143A : polymerase ribozyme fitness (log ratio) is -1.44

What the record says about A97U G124U : polymerase ribozyme fitness (log ratio) is -1.05

What the record says about G84U C123A : polymerase ribozyme fitness (log ratio) is -1.79

What the record says about C118U U145A : polymerase ribozyme fitness (log ratio) is -0.179

What the record says about A26C C96U G124A : polymerase ribozyme fitness (log ratio) is -1.67

Entry source: the RNAGym collection of RNA variant scans (doi:10.1073/pnas.2313332121)
